The measurements presented in this section are drawn from PubChem BioAssay AID1851.

target: Cytochrome P450 3A4 (Homo sapiens) (UniProt P08684); assay: Cytochrome panel assay with activity outcomes; details: recombinant CYP, pro-luciferin dealkylation, luminescence, p450-cyp3a4; series mostly up to 57.1 µM
Sequence (P08684 whole entry, looked up): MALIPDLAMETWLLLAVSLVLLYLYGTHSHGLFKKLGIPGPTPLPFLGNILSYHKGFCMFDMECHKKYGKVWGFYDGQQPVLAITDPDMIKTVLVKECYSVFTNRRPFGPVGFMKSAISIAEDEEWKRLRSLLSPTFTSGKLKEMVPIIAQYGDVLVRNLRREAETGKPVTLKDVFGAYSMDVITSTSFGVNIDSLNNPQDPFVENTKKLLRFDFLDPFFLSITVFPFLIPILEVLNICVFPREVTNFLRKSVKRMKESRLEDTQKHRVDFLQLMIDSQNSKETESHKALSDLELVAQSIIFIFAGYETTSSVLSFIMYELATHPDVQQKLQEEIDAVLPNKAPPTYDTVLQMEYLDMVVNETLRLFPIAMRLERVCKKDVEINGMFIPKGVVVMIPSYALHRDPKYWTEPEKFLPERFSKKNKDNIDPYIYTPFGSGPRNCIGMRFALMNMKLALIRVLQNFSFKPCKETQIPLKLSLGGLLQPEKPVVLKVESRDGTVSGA
The campaign covered roughly 16,000 compounds. About 5,100 (32%) were called active. Not shown: some 25% with an inconclusive outcome. Calls come from the whole dose curve; as a rule, active = well fitted curve in the direction sought with a large enough effect; inconclusive = small, poorly fitted or top-dose-only effect, or effect the other way; inactive = no such curve, though single readings can be large or run the other way. The list shows a part of the results.
Permitted responses: class 1 = active, class 0 = inactive

input: What did this assay record as the result for COC(=O)N1CCC[C@@]2(CCN(C(c3ccccc3)c3ccccc3)C2)C1 ?
output: class 0

input: What did this assay record as the result for c1csc(CNc2nc(-c3ccc4c(c3)OCO4)nc3ccccc23)c1 ?
output: class 1

input: What did this assay record as the result for CCCNS(=O)(=O)c1ccc(OCC(=O)OC)cc1 ?
output: class 0

input: What did this assay record as the result for Cc1ccc(Cc2cnc(NC(=O)c3cccs3)s2)cc1 ?
output: class 1

input: What did this assay record as the result for COc1cccc(Cn2c(=O)c(-c3ccccc3)nc3cnc(OC)nc32)c1 ?
output: class 1

input: What did this assay record as the result for COc1ccc(NC(=O)c2cccs2)c([N+](=O)[O-])c1 ?
output: class 1

input: What did this assay record as the result for C[C@H](O)[C@H](O)[C@@H]1CNc2nc(N)[nH]c(=O)c2N1 ?
output: class 0

input: What did this assay record as the result for Cc1ccnn2cc3c(=O)n(C)c(=O)n(C)c3c12 ?
output: class 0

input: What did this assay record as the result for c1cncc(CNc2nc(-c3ccc4c(c3)OCO4)nc3ccccc23)c1 ?
output: class 1

input: What did this assay record as the result for COc1ncc2nc(-c3cccs3)c(=O)n(-c3ccccc3)c2n1 ?
output: class 0

input: What did this assay record as the result for COc1nccc(-c2c(-c3ccc(F)cc3)ncn2C2CCC(O)CC2)n1 (stereo not given) ?
output: class 0

input: What did this assay record as the result for COc1ccc(-n2c(=O)c(-c3cccs3)nc3cnc(OC)nc32)cc1 ?
output: class 1

input: What did this assay record as the result for CN(C)c1nc2c(c(=O)[nH]c(=O)n2C)n1Cc1ccccc1Br ?
output: class 0

input: What did this assay record as the result for CCCc1nnc(NC(=O)c2cccs2)s1 ?
output: class 0

input: What did this assay record as the result for CN(CCO)c1nc(N)c2c(N)nc3c(c2c1C#N)CC(=O)N3C1CCCC1 ?
output: class 1

input: What did this assay record as the result for Cn1cccc1C(=O)N1CCC[C@@]2(CCN(C(c3ccccc3)c3ccccc3)C2)C1 ?
output: class 1

input: What did this assay record as the result for COc1cccc(Cn2c(=O)c(-c3ccccc3)nc3cnc(N(C)C)nc32)c1 ?
output: class 1

input: What did this assay record as the result for O=C(c1ccc2c(c1)N(Cc1ccccc1)C(=O)CS2)N1CCOCC1 ?
output: class 0

input: What did this assay record as the result for Cc1cnc(CNc2nc(-c3cccnc3)nc3ccccc23)cn1 ?
output: class 1

input: What did this assay record as the result for COC(=O)c1ccc(C23CC2(C(NP(=O)(c2ccccc2)c2ccccc2)c2ccccc2)C3)cc1 (stereo not given) ?
output: class 1

input: What did this assay record as the result for CC1=C(C(=O)OCc2ccccc2)C(c2ccccc2)NC(=O)N1CCCCCC(=O)O (stereo not given) ?
output: class 0

input: What did this assay record as the result for CCOCCn1c(CN(Cc2ccccc2)Cc2ccccc2)nc2c1c(=O)[nH]c(=O)n2C ?
output: class 1

input: What did this assay record as the result for O=C(O)/C=C/c1cn(-c2ncc(C(F)(F)F)cc2Cl)c2ccccc12 ?
output: class 0

input: What did this assay record as the result for COCCNc1cc(-c2c(C)noc2C)ncn1 ?
output: class 0

input: What did this assay record as the result for COc1ccc(NC(=O)c2ccc(C)cc2Cl)c([N+](=O)[O-])c1 ?
output: class 1

input: What did this assay record as the result for COC(=O)[C@@]1(Cc2ccccc2)[C@H]2c3cc(C(=O)N4CCCC4)n(C)c3C[C@H]2CN1C(=O)c1ccccc1 ?
output: class 1

input: What did this assay record as the result for COc1ccc(-n2c(=O)c(-c3cccs3)nc3cnc(Oc4ccccc4)nc32)cc1 ?
output: class 0

input: What did this assay record as the result for Cc1c2cnccc2c(C)c2c1c1ccccc1n2CCOC(=O)c1ccccc1 ?
output: class 1

input: What did this assay record as the result for COc1cccc(-c2nc(NCc3cnc(C)cn3)c3ccccc3n2)c1 ?
output: class 1

input: What did this assay record as the result for CNc1cc(-c2c(C)noc2C)ncn1 ?
output: class 0

input: What did this assay record as the result for O=c1c(CCc2ccccc2)nc2cnc(Oc3cccc(Cl)c3)nc2n1C[C@H]1CCCO1 ?
output: class 1

input: What did this assay record as the result for O=C(O)c1cc2c(o1)CCC/C2=N\O ?
output: class 0

input: What did this assay record as the result for Cc1nc2cnc(Oc3cccc(Cl)c3)nc2n(CCc2ccccc2)c1=O ?
output: class 0

input: What did this assay record as the result for COc1nc(C)nc(Cl)c1NC1=NCCN1 ?
output: class 0

input: What did this assay record as the result for CCCn1nnnc1NC(=O)c1ccc(C)cc1Cl ?
output: class 0

input: What did this assay record as the result for CCOC(=O)N1CCN(C(=O)c2ccc(OC)c(OC)c2)CC1 ?
output: class 0

input: What did this assay record as the result for Cc1ccc(C(=O)O/N=C/c2c(Cl)n(C)c3ccccc23)cc1 ?
output: class 0

input: What did this assay record as the result for CC(C)c1ccc(-c2nnn(CCC(=O)O)n2)cc1 ?
output: class 0

input: What did this assay record as the result for COCCNc1ncncc1-c1c(C)noc1C ?
output: class 1

input: What did this assay record as the result for Cc1noc(C)c1-c1cncnc1NCCN1CCOCC1 ?
output: class 1

input: What did this assay record as the result for O=c1c(-c2ccccc2)nc2cnc(Oc3cccc(Cl)c3)nc2n1C1CC1 ?
output: class 0

input: What did this assay record as the result for Cc1noc(C)c1-c1nccc(N2CCOCC2)n1 ?
output: class 0

input: What did this assay record as the result for Cn1c(C(N)=O)cnc1Sc1ncc(C(F)(F)F)cc1Cl ?
output: class 0

input: What did this assay record as the result for Clc1ccc(C2=C3CCCCn4c(-c5ccccc5)c[n+](c43)C2)cc1 ?
output: class 0

input: What did this assay record as the result for COC(=O)[C@@]1(Cc2ccccc2)[C@H]2c3cc(C(=O)N4CCCC4)n(CC4CC4)c3C[C@H]2CN1C(=O)c1ccccc1 ?
output: class 1
